# assay_system: Monoglyceride lipase (Homo sapiens, UniProt Q99685)
# Sequence (Q99685 whole entry): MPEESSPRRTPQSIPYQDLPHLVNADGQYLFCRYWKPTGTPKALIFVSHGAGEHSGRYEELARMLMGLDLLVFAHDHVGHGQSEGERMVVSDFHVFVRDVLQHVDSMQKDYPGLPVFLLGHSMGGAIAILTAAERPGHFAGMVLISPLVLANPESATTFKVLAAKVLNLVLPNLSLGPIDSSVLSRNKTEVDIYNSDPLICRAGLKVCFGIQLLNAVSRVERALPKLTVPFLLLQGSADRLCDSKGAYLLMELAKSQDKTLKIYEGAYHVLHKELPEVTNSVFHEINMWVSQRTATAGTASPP
# method_summary: Displacement of [3H]2-OG from human MGL by liquid scintillation counting
recorded_endpoint: pIC50
// pIC50 here means minus log10 of the molar concentration (mol/L)

## Input So what does the record say about pIC50 for `O=C1C=CC(=O)N1c1cccc(Br)c1` ?
## Output 5.37

## Input Can you share its pIC50? I mean this molecule: `O=C1C=CC(=O)N1c1ccc(I)cc1`
## Output 5.36

## Input Form field: reported pIC50 of `O=C1C=CC(=O)N1CCc1ccccc1`
## Output 5.12

## Input pIC50 lookup needed for `CCc1ccc(N2C(=O)C=CC2=O)cc1` , thanks.
## Output 5.55

## Input Query (molecule): `O=C1C=CC(=O)N1c1ccccc1Cl` ; field requested: pIC50
## Output 5.38

## Input What value of measured pIC50 is listed for `O=C1C=CC(=O)N1Cc1ccc(CN2C(=O)C=CC2=O)cc1` ?
## Output 5.77

* * *

# Organism: Homo sapiens
# method_summary: Selectivity ratio of IC50 for human FAAH to IC50 for human MGL
Quick reference for Ratio IC50 among some compounds
# answer = number (no unit)

Field: example entries. Status: answers known.
O=C1C=CC(=O)N1c1ccc(-c2ccccc2)cc1 4
O=C1C=CC(=O)N1c1cccc(-c2ccccc2)c1 21
O=C1C=CC(=O)N1c1ccccc1Br 75
O=C1C=CC(=O)N1c1ccccc1Cl 77
CC(C)c1ccc(N2C(=O)C=CC2=O)cc1 40

## Input Query (compound): `CCCc1ccc(N2C(=O)C=CC2=O)cc1` ; field requested: Ratio IC50
## Output 32

* * *

# assay_system: Fatty-acid amide hydrolase 1 (Homo sapiens)
# method_summary: Displacement of [3H]ethanolamine from human recombinant FAAH by liquid scintillation counting
Item-by-item account of IC50

Solved cases (3 shown):
COc1ccc(N2C(=O)C=CC2=O)cc1 > 500 µM
CCc1ccccc1N1C(=O)C=CC1=O > 500 µM
Cc1ccccc1N1C(=O)C=CC1=O > 500 µM

# evaluate next
## Input Value wanted: IC50 (Fatty-acid amide hydrolase 1 (Homo sapiens)) of entry `COc1ccccc1N1C(=O)C=CC1=O`
## Output > 500 µM

* * *

# assay_system: Fatty-acid amide hydrolase 1 (Homo sapiens, UniProt O00519)
# Sequence (O00519 whole entry): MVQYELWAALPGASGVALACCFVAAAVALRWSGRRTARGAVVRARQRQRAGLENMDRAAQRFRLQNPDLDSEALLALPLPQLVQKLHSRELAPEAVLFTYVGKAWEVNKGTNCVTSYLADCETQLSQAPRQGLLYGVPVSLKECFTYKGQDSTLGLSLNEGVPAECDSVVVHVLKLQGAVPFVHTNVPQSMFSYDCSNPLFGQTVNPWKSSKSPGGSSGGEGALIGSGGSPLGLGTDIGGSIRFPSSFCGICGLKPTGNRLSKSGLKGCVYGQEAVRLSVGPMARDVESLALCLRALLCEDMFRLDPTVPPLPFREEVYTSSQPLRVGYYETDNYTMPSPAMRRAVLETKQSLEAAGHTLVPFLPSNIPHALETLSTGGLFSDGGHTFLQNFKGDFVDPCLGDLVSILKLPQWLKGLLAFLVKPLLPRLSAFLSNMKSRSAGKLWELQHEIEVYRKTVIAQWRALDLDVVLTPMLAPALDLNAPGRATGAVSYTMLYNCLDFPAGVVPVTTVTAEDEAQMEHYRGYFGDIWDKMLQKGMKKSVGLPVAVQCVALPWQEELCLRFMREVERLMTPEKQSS
# method_summary: Displacement of [3H]ethanolamine from human recombinant FAAH by liquid scintillation counting
recorded_endpoint: pIC50
The value called pIC50 is obtained by taking minus log10 of the concentration in mol/L.

O=C1C=CC(=O)N1CCCCc1ccccc1 4.07
O=C1C=CC(=O)N1c1cccc(Cl)c1 3.99

## Input Query: pIC50; subject: `O=C1C=CC(=O)N1c1ccccc1Cl`
## Output 3.67

## Input Suppose we examine the compound `O=C1C=CC(=O)N1c1ccccc1I` ; what pIC50 value has been reported?
## Output 3.70

## Input Given the entry `CCCCCCCc1ccc(N2C(=O)C=CC2=O)cc1` , report its measured pIC50.
## Output 4.06

## Input Sample `O=C1C=CC(=O)N1Cc1ccccc1` — what was its pIC50?
## Output 3.73

* * *

Quick reference: IC50 of the listed items.
# assay_system: UniProt:O00519
# method_summary: Displacement of [3H]ethanolamine from human recombinant FAAH by liquid scintillation counting
Please append the unit to your numeric answer.

Take a look at these entries with their results.
O=C1C=CC(=O)N1c1cccc(Br)c1 151 µM
CC(C)c1ccc(N2C(=O)C=CC2=O)cc1 120 µM
O=C1C=CC(=O)N1c1ccc(O)cc1 288 µM
CCc1cccc(N2C(=O)C=CC2=O)c1 103 µM
CC1=C(C)C(=O)N(c2ccccc2)C1=O 206 µM

Could you now consider this next molecule?
## Input Which IC50 value belongs to `CC(C)c1ccccc1N1C(=O)C=CC1=O` ?
## Output 65 µM

* * *

# assay_system: Monoglyceride lipase (Homo sapiens, UniProt Q99685)
# method_summary: Displacement of [3H]2-OG from human MGL by liquid scintillation counting
recorded_endpoint: pIC50
// field semantics: pIC50 = negative decimal log of concentration (mol/L)

## Input Item under review: `O=C1C=CC(=O)N1c1cccc(I)c1` . Reported pIC50?
## Output 5.65

## Input Query: pIC50; subject: `O=C1C=CC(=O)N1c1ccc(Cl)cc1`
## Output 5.14

## Input Any idea what pIC50 was measured for `O=C1C=CC(=O)N1c1ccc(Br)cc1` ?
## Output 5.36

## Input Which pIC50 reading was recorded for the compound `O=C1C=CC(=O)N1c1cccc(N2C(=O)C=CC2=O)c1` ?
## Output 5.69

## Input I would be grateful if you could share the reported pIC50 for `CCc1cccc(N2C(=O)C=CC2=O)c1` .
## Output 5.33

## Input # query: pIC50 of entry `CCCCCCCc1ccc(N2C(=O)C=CC2=O)cc1`
## Output 5.67

## Input If you can, please state the reported pIC50 value of `O=C1C=CC(=O)N1c1ccc(Cc2ccc(N3C(=O)C=CC3=O)cc2)cc1` .
## Output 5.65

* * *

# Organism: Homo sapiens
# method_summary: Selectivity ratio of IC50 for human FAAH to IC50 for human MGL
recorded_endpoint: Ratio IC50
// return just the number, without any unit appended

// known answers, use as guide
O=C1C=CC(=O)N1c1ccc(O)cc1 30
O=C(Nc1cccc(-c2ccccc2)c1)OC1CCCCC1 0.57
O=C1C=CC(=O)N1CCCCc1ccccc1 39

## Input Look at this compound and give its reported Ratio IC50. `CCCCC/C=C\C/C=C\C/C=C\C/C=C\CCCC(=O)C(F)(F)F`
## Output 0.002

## Input If you can, please state the reported Ratio IC50 value of `O=C1C=CC(=O)N1CCc1ccccc1` .
## Output 33

* * *

# assay_system: Fatty-acid amide hydrolase 1 (Homo sapiens)
# method_summary: Displacement of [3H]ethanolamine from human recombinant FAAH by liquid scintillation counting
recorded_endpoint: IC50 (µM)
// return numeric value only (unit: µM, not printed)

O=C1C=CC(=O)N1c1ccc(F)cc1 120
O=C1C=CC(=O)N1c1ccccc1F 295
CCCc1ccc(N2C(=O)C=CC2=O)cc1 186

## Input I have this compound here, `O=C1C=CC(=O)N1c1cccc(F)c1` , and I need its recorded IC50.
## Output 89

* * *

# assay_system: Monoglyceride lipase (Homo sapiens, UniProt Q99685)
# method_summary: Displacement of [3H]2-OG from human MGL by liquid scintillation counting
IC50 less than 2000 nM is Satisfied; IC50 greater than or equal to 2000 nM is Not satisfied.

O=C1C=CC(=O)N1c1ccccc1F Not satisfied
CC(C)c1ccccc1N1C(=O)C=CC1=O Not satisfied

## Input State whether 2000 nM exceeds IC50 recorded for `Cc1cccc(N2C(=O)C=CC2=O)c1` .
## Output Not satisfied

## Input Field: below-cutoff. Rule: recorded IC50 strictly less than 2000 nM. Subject: `Cc1ccccc1N1C(=O)C=CC1=O`
## Output Not satisfied

* * *

# Species: Homo sapiens
# method_summary: Selectivity ratio of IC50 for human FAAH to IC50 for human MGL
Recorded measurements of Ratio IC50, one per entry
# output: bare number, no unit

O=C1C=CC(=O)N1c1cccc(F)c1 37
O=C1C=CC(=O)N1c1cccc(Br)c1 27
O=C1C=CC(=O)N1c1ccc(Cc2ccc(N3C(=O)C=CC3=O)cc2)cc1 5
O=C1C=CC(=O)N1Cc1ccc(-c2ccccc2)cc1 73
O=C1C=CC(=O)N1Cc1ccccc1 36

## Input Entry under review: `CCCCC/C=C\C/C=C\C/C=C\C/C=C\CCCCN1C(=O)C=CC1=O` . Reported Ratio IC50?
## Output 1.95

## Input Could you tell me which Ratio IC50 is on file for `CCCCCCCc1ccc(N2C(=O)C=CC2=O)cc1` ?
## Output 41

## Input What does the data say about its Ratio IC50? Entry: `O=C1C=CC(=O)N1CCCCCCN1C(=O)C=CC1=O`
## Output 11

## Input I am curious: what Ratio IC50 value has been reported for `O=C1C=CC(=O)N1c1ccccc1F` ?
## Output 63

## Input Which Ratio IC50 reading was recorded for the molecule `O=C1C=CC(=O)N1c1ccc(F)cc1` ?
## Output 23

* * *

# assay_system: Monoglyceride lipase (Homo sapiens)
# method_summary: Displacement of [3H]2-OG from human MGL by liquid scintillation counting
recorded_endpoint: IC50 (nM)
API: value field is a number in nM; no unit string.

Some compounds with known IC50 results, for comparison:
CCc1ccccc1N1C(=O)C=CC1=O 2000
O=C1C=CC(=O)N1c1ccccc1 15900
COc1cccc(N2C(=O)C=CC2=O)c1 6600
Cc1ccc(N2C(=O)C=CC2=O)cc1 14100

## Input Which IC50 is listed for `O=C1C=CC(=O)N1CCCCN1C(=O)C=CC1=O` ?
## Output 28800

## Input Item under review: `O=C1C=CC(=O)N1Cc1ccccc1` . Reported IC50?
## Output 5140

## Input Look up IC50: `CCCCCCCC/C=C\CCCCCCCCN1C(=O)C=CC1=O`
## Output 930

## Input Quick one: IC50 of `O=C1C=CC(=O)N1c1ccc(-c2ccccc2)cc1` ?
## Output 1620

## Input May I ask what IC50 has been recorded for `O=C1C=CC(=O)N1c1cccc(F)c1` ?
## Output 2390

## Input State the recorded IC50 for this entry: `O=C1C=CC(=O)N1CCCCCCN1C(=O)C=CC1=O`
## Output 1700

## Input Entry `O=C1C=CC(=O)N1c1cccc(-c2ccccc2)c1` : reported IC50 = ?
## Output 2340
